Values compiled from ChEMBL document CHEMBL1126550.

Vasopressin V2 receptor (Rattus norvegicus, UniProt Q00788) measurements of IC50, listed per entry.
Sequence (Q00788 whole entry): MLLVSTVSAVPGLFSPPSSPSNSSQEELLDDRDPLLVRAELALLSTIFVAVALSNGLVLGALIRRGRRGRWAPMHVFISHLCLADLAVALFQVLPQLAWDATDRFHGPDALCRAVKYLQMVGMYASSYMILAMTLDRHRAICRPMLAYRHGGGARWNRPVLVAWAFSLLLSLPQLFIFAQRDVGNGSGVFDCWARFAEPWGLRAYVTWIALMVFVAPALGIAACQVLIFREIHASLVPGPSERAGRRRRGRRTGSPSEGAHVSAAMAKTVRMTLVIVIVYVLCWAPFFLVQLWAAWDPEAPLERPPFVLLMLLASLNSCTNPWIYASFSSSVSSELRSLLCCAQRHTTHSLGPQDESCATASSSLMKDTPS
measured_parameter: IC50 (µM)

>>> value_observed("CC1(C)[C@@H]2CC[C@@]1(CS(=O)(=O)N1CCC3(CCc4ccccc43)CC1)[C@@H](NC(=O)C1CC(S(C)(=O)=O)CN1)C2 (stereo partly drawn)")
5.5

(1) CC1(C)[C@@H]2CC[C@@]1(CS(=O)(=O)N1CCC3(CCc4ccccc43)CC1)[C@@H](NC(=O)Cc1cccnc1)C2
(2) CC1(C)[C@@H]2CC[C@@]1(CS(=O)(=O)N1CCC3(CCc4ccccc43)CC1)[C@@H](NC(=O)C(N)CCC#N)C2 (stereo partly drawn)
Hey, which is lower on measured IC50, 1 or 2 ? Reply with the label of the item you choose. 2
(2: 6.5 µM, 1: 10 µM)

###

So I've got IC50 readings for Oxytocin receptor (Rattus norvegicus), take a look.
measured_parameter: IC50 (nM)

Worked cases, IC50 given:
>>> value_observed("CC1(C)[C@@H]2CC[C@@]1(CS(=O)(=O)N1CCC3(C=Cc4ccccc43)CC1)[C@@](O)(CCNC(=O)Cc1nnn[nH]1)C2")
300
>>> value_observed("CC1(C)[C@@H]2CC[C@@]1(CS(=O)(=O)N1CCC3(C=Cc4ccccc43)CC1)[C@@](O)(CNC(=O)Cc1ccncc1)C2")
35
>>> value_observed("CC1(C)[C@@H]2CC[C@@]1(CS(=O)(=O)N1CCC3(CCc4ccccc43)CC1)[C@@H](NC(=O)C(CCS(C)(=O)=O)c1c[nH]cn1)C2 (single isomer, unassigned; isomer B)")
11
>>> value_observed("CC1(C)[C@@H]2CC[C@@]1(CS(=O)(=O)N1CCC3(CCc4ccccc43)CC1)[C@@H](N1C(=O)NC(CCS(C)(=O)=O)C1=O)C2 (stereo partly specified)")
2.6

(P) CC1(C)[C@@H]2CC[C@@]1(CS(=O)(=O)N1CCC3(CCc4ccccc43)CC1)[C@@H](NC(=O)CN1CC[C@H](N)C1=O)C2
(Q) CC1(C)[C@@H]2CC[C@@]1(CS(=O)(=O)N1CCC3(CCc4ccccc43)CC1)[C@@H](NC(=O)c1cccs1)C2
Please compare: P and Q . Report which one has the smaller IC50 value. Which one? Tell me its label. P

###

# target_of_assay: Vasopressin V1 receptor (Rattus norvegicus, UniProt P48974+P30560)
# test_description: Inhibition of radioligand [3H]AVP binding to the vasopressin V1 receptor in rat liver tissue
measured_parameter: IC50 (µM)

Recorded results for 4 molecules are shown here.
>>> value_observed("CC1(C)[C@@H]2CC[C@@]1(CS(=O)(=O)N1CCC3(CCc4ccccc43)CC1)[C@@H](NC(=O)C(CCS(C)(=O)=O)c1c[nH]cn1)C2 (stereo in doubt)")
1.5
>>> value_observed("Cn1cnc(CC(=O)N(CCS(C)(=O)=O)[C@H]2C[C@H]3CC[C@]2(CS(=O)(=O)N2CCC4(CCc5ccccc54)CC2)C3(C)C)c1")
0.32
>>> value_observed("CC1(C)[C@@H]2CC[C@@]1(CS(=O)(=O)N1CCC3(C=Cc4ccccc43)CC1)[C@@](O)(CNC(=O)C(CCS(C)(=O)=O)NC(=O)Cc1c[nH]cn1)C2 (stereo partly specified)")
0.31
>>> value_observed("CC1(C)[C@@H]2CC[C@@]1(CS(=O)(=O)N1CCC3(CCc4ccccc43)CC1)[C@@H](NC(=O)CCc1c[nH]cn1)C2")
5.8

(1) Cn1cnc(CC(=O)NC(CCS(C)(=O)=O)C(=O)N[C@H]2C[C@H]3CC[C@]2(CS(=O)(=O)N2CCC4(CCc5ccccc54)CC2)C3(C)C)c1 (stereo partly specified)
(2) CCC(C(=O)N[C@H]1C[C@H]2CC[C@]1(CS(=O)(=O)N1CCC3(CCc4ccccc43)CC1)C2(C)C)c1c[nH]cn1 (stereo partly specified)
Could you please tell me which of these two has the higher IC50: 1 or 2 ? Provide the label of your selected option as the answer. 2
(2: 4 µM, 1: 1.2 µM)

(1) CC1(C)[C@@H]2CC[C@@]1(CS(=O)(=O)N1CCC3(CCc4ccccc43)CC1)[C@@H](NC(=O)[C@@H](N)CCS(C)(=O)=O)C2
(2) CC1(C)[C@@H]2CC[C@@]1(CS(=O)(=O)N1CCC3(CCc4ccccc43)CC1)[C@@H](N1C(=O)CC(CC(=O)O)C1=O)C2 (stereo partly specified)
(3) CC(=O)NCC[C@@]1(O)C[C@H]2CC[C@]1(CS(=O)(=O)N1CCC3(C=Cc4ccccc43)CC1)C2(C)C
Sort (3 molecules) by IC50: min first. Form entry: ranked labels (order as requested). 1, 2, 3
(1: 0.89 µM, 2: 1.6 µM, 3: 2.7 µM)

###

# target_of_assay: Vasopressin V1 receptor (Rattus norvegicus, UniProt P48974+P30560)
# test_description: Inhibition of radioligand [3H]AVP binding to the vasopressin V1 receptor in rat liver tissue
measured_parameter: IC50 (nM)

Examples from the recorded data:
>>> value_observed("CC1(C)[C@@H]2CC[C@@]1(CS(=O)(=O)N1CCC3(C=Cc4ccccc43)CC1)[C@@](O)(CNC(=O)c1n[nH]c(N)n1)C2")
680
>>> value_observed("CC1(C)[C@@H]2CC[C@@]1(CS(=O)(=O)N1CCC3(CCc4ccccc43)CC1)[C@@H](NC(=O)Cc1ccccn1)C2")
3900
>>> value_observed("CC1(C)[C@@H]2CC[C@@]1(CS(=O)(=O)N1CCC3(CCc4ccccc43)CC1)[C@@H](NC(=O)N(CCc1c[nH]cn1)CCS(C)(=O)=O)C2")
700
>>> value_observed("CC1(C)[C@@H]2CC[C@@]1(CS(=O)(=O)N1CCC3(CCc4ccccc43)CC1)[C@@H](NC(=O)CN1CC[C@H](N)C1=O)C2")
2700

(P) CC1(C)[C@@H]2CC[C@@]1(CS(=O)(=O)N1CCC3(CCc4ccccc43)CC1)[C@@H](N1C(=O)CN(CC(=O)Nc3ncc[nH]3)C1=O)C2
(Q) CC1(C)[C@@H]2CC[C@@]1(CS(=O)(=O)N1CCC3(CCc4ccccc43)CC1)[C@](O)(CNC(=O)C(N)CS(C)(=O)=O)C2 (stereo partly specified)
Choose between P and Q : whose measured IC50 value is numerically larger? Choose, then provide that item's label. Q
(Q: 1100 nM, P: 500 nM)

###

# target_of_assay: Vasopressin V1 receptor (Rattus norvegicus, UniProt P48974+P30560)
# test_description: Inhibition of radioligand [3H]AVP binding to the vasopressin V1 receptor in rat liver tissue
Parameter IC50: see the listing below.

See these solved cases before continuing.
>>> value_observed("Cc1[nH]cnc1C(=O)N[C@H]1C[C@H]2CC[C@]1(CS(=O)(=O)N1CCC3(CCc4ccccc43)CC1)C2(C)C")
"> 3000 nM"
>>> value_observed("CC1(C)[C@@H]2CC[C@@]1(CS(=O)(=O)N1CCC3(C=Cc4ccccc43)CC1)[C@@](O)(CNC(=O)CC13CC4CC(CC(C4)C1)C3)C2")
"> 3000 nM"
>>> value_observed("CC1(C)[C@@H]2CC[C@@]1(CS(=O)(=O)N1CCC3(C=Cc4ccccc43)CC1)[C@@H](O)C2")
"> 10000 nM"

Quote IC50 reported for CC1(C)[C@@H]2CC[C@@]1(CS(=O)(=O)N1CCC3(CCc4ccccc43)CC1)[C@@H](NC(=O)Cc1csc(N)n1)C2 please. > 3000 nM

###

# target_of_assay: Vasopressin V2 receptor (Rattus norvegicus)
pIC50: −log10 of the molar value.
Reported pIC50 is given for each of the following compounds.

Study these solved cases before continuing.
>>> value_observed("CC1(C)[C@@H]2CC[C@@]1(CS(=O)(=O)N1CCC3(CCc4ccccc43)CC1)[C@@H](NC(=O)Cc1nnn[nH]1)C2")
"< 5.52"
>>> value_observed("CC1(C)[C@@H]2CC[C@@]1(CS(=O)(=O)N1CCC3(CCc4ccccc43)CC1)[C@@H](N1CCNC1=O)C2")
"< 5.52"

Then this compound:
Give measured pIC50 for CC1(C)[C@@H]2CC[C@@]1(CS(=O)(=O)N1CCC3(CCc4ccccc43)CC1)[C@@H](NC(=O)C1CNC(=O)N1)C2 (stereo partly drawn) (Vasopressin V2 receptor (Rattus norvegicus)). < 5.52

###

# target_of_assay: Vasopressin V1 receptor (Rattus norvegicus, UniProt P48974+P30560)
# test_description: Inhibition of radioligand [3H]AVP binding to the vasopressin V1 receptor in rat liver tissue
measured_parameter: IC50 (nM)

>>> value_observed("CC1(C)[C@@H]2CC[C@@]1(CS(=O)(=O)N1CCC3(CCc4ccccc43)CC1)[C@@H](NC(=O)C1CC(S(C)(=O)=O)CN1)C2 (stereo not given in full)")
4000

(1) CC1(C)[C@@H]2CC[C@@]1(CS(=O)(=O)N1CCC3(CCc4ccccc43)CC1)[C@@H](NC(=O)/C=C/c1c[nH]cn1)C2
(2) CC1(C)[C@@H]2CC[C@@]1(CS(=O)(=O)N1CCC3(C=Cc4ccccc43)CC1)[C@@](O)(CNC(=O)Cc1ccncc1)C2
(3) CC(C(=O)N[C@H]1C[C@H]2CC[C@]1(CS(=O)(=O)N1CCC3(CCc4ccccc43)CC1)C2(C)C)c1cn(C)cn1 (stereo not given in full)
Order field: IC50 | Direction: descending (largest first) Put the labels in the requested order and write them down. 1, 3, 2
(1: 5200 nM, 3: 3000 nM, 2: 480 nM)
